tested on: HeLa Kyoto; assay: melting temperature (median over replicates), in situ; higher = more thermally stable; details: cell cycle stage: mitosis
Parameter: melting temperature. Scope: all listed entries.

query.sequence	melting temperature, °C
MCGNNMSTPLPAIVPAARKATAAVIFLHGLGDTGHGWAEAFAGIRSSHIKYICPHAPVRPVTLNMNVAMPSWFDIIGLSPDSQEDESGIKQAAENIKALIDQEVKNGIPSNRIILGGFSQGGALSLYTALTTQQKLAGVTALSCWLPLRASFPQGPIGGANRDISILQCHGDCDPLVPLMFGSLTVEKLKTLVNPANVTFKTYEGMMHSSCQQEMMDVKQFIDKLLPPID [LYPLA1]	56.2
MNQEKLAKLQAQVRIGGKGTARRKKKVVHRTATADDKKLQSSLKKLAVNNIAGIEEVNMIKDDGTVIHFNNPKVQASLSANTFAITGHAEAKPITEMLPGILSQLGADSLTSLRKLAEQFPRQVLDSKAPKPEDIDEEDDDVPDLVENFDEASKNEAN [BTF3L4]	54.6
MTEADVNPKAYPLADAHLTKKLLDLVQQSCNYKQLRKGANEATKTLNRGISEFIVMAADAEPLEIILHLPLLCEDKNVPYVFVRSKQALGRACGVSRPVIACSVTIKEGSQLKQQIQSIQQSIERLLV [SNU13]	53
MESQKEARTLQEPVARPSGASSSQTPNDKERREGGAVPAAAALGAEADDDSADGLWELPVEPAERRPECTRCSRPQKVCLCPFLPAHPLHISTHLYIIQHPAEENKVLRTVPLLAACLPQDKCKVKIGRRFSEERDPELSTVCRKSGTLILYPGAEAANLEEFILDSPVYPSTIIIIDGTWSQAKDIFYKNSLFRHPKQVQLKTSISSQYVIRMQPTNRCLSTLECAAVALSILEKNNYIQETLLRPLQALCSFQLQHGAQIRLSKEHLLKNGLYPKPMPKNKRKLRKMELLMNSVKI [DTWD2]	51.2

----------
system: HeLa Kyoto; test: solubility in G1/S (NP-40 vs SDS abundance) (log2 ratio); higher = more soluble; settings: cell cycle stage: G1/S

query.sequence	solubility in G1/S (log2)
MDDTLFQLKFTAKQLEKLAKKAEKDSKAEQAKVKKALLQKNVECARVYAENAIRKKNEGVNWLRMASRVDAVASKVQTAVTMKGVTKNMAQVTKALDKALSTMDLQKVSSVMDRFEQQVQNLDVHTSVMEDSMSSATTLTTPQEQVDSLIMQIAEENGLEVLDQLSQLPEGASAVGESSVRSQEDQLSRRLAALRN [CHMP1A]	0.509
MRSRVLWGAARWLWPRRAVGPARRPLSSGSPPLEELFTRGGPLRTFLERQAGSEAHLKVRRPELLAVIKLLNEKERELRETEHLLHDENEDLRKLAENEITLCQKEITQLKHQIILLLVPSEETDENDLILEVTAGVGGQEAMLFTSEIFDMYQQYAAFKRWHFETLEYFPSELGGLRHASASIGGSEAYRHMKFEGGVHRVQRVPKTEKQGRVHTSTMTVAILPQPTEINLVINPKDLRIDTKRASGAGGQHVNTTDSAVRIVHLPTGVVSECQQERSQLKNKELAMTKLRAKLYSMHLEEEINKRQNARKIQIGSKGRSEKIRTYNFPQNRVTDHRINKTLHDLETFMQGDYLLDELVQSLKEYADYESLVEIISQKV [MTRF1L]	-0.0262
MAKRRAAEPVTFHVPWKRLLLCDFAEQPPPPPLWIRPPGVAHAGQLLGVPEQHRKRKIDAGTMAEPSASPSKRRDSGDNSAPSGQEREDHGLETGDPPLPPPPVLPGPGEELPGARLPGGGGDDGAGRAGPPRGDWGVASRQHNEEFWQYNTFQYWRNPLPPIDLADIEDLSEDTLTEATLQGRNEGAEVDMES [C9ORF40]	0.182
MSSPSPGKRRMDTDVVKLIESKHEVTILGGLNEFVVKFYGPQGTPYEGGVWKVRVDLPDKYPFKSPSIGFMNKIFHPNIDEASGTVCLDVINQTWTALYDLTNIFESFLPQLLAYPNPIDPLNGDAAAMYLHRPEEYKQKIKEYIQKYATEEALKEQEEGTGDSSSESSMSDFSEDEAQDMEL [UBE2H]	-0.0237
MAPLGGAPRLVLLFSGKRKSGKDFVTEALQSRLGADVCAVLRLSGPLKEQYAQEHGLNFQRLLDTSTYKEAFRKDMIRWGEEKRQADPGFFCRKIVEGISQPIWLVSDTRRVSDIQWFREAYGAVTQTVRVVALEQSRQQRGWVFTPGVDDAESECGLDNFGDFDWVIENHGVEQRLEEQLENLIEFIRSRL [PMVK]	-0.0155
MTEKAPEPHVEEDDDDELDSKLNYKPPPQKSLKELQEMDKDDESLIKYKKTLLGDGPVVTDPKAPNVVVTRLTLVCESAPGPITMDLTGDLEALKKETIVLKEGSEYRVKIHFKVNRDIVSGLKYVQHTYRTGVKVDKATFMVGSYGPRPEEYEFLTPVEEAPKGMLARGTYHNKSFFTDDDKQDHLSWEWNLSIKKEWTE [ARHGDIB]	0.0837
